# Method Summary: Ratio of drug level in Sprague-Dawley rat brain to plasma at 2.5 mg/kg, iv measured after 1 hr
# Type: ADME, organism-based
# Test Conditions: brain and plasma, read-out: BPR
Assay Metric: Kp at 1 h

Smiles Text: C[C@H](CC[C@@H](O)C(F)(F)F)[C@H]1CC[C@H]2[C@@H]3CC=C4C[C@@](C)(O)CC[C@]4(C)[C@H]3CC[C@]12C
Recorded Result: 1

Smiles Text: C[C@H](CCC(C)(C)O)[C@H]1CC[C@H]2[C@@H]3CC=C4C[C@@](C)(O)CC[C@]4(C)[C@H]3CC[C@]12C
Recorded Result: 0.6

* * *

# Test Target: Glutamate NMDA receptor; GRIN1/GRIN2A (Homo sapiens, UniProt Q05586+Q12879)
# Sequence (Q12879 whole entry, other chains not shown): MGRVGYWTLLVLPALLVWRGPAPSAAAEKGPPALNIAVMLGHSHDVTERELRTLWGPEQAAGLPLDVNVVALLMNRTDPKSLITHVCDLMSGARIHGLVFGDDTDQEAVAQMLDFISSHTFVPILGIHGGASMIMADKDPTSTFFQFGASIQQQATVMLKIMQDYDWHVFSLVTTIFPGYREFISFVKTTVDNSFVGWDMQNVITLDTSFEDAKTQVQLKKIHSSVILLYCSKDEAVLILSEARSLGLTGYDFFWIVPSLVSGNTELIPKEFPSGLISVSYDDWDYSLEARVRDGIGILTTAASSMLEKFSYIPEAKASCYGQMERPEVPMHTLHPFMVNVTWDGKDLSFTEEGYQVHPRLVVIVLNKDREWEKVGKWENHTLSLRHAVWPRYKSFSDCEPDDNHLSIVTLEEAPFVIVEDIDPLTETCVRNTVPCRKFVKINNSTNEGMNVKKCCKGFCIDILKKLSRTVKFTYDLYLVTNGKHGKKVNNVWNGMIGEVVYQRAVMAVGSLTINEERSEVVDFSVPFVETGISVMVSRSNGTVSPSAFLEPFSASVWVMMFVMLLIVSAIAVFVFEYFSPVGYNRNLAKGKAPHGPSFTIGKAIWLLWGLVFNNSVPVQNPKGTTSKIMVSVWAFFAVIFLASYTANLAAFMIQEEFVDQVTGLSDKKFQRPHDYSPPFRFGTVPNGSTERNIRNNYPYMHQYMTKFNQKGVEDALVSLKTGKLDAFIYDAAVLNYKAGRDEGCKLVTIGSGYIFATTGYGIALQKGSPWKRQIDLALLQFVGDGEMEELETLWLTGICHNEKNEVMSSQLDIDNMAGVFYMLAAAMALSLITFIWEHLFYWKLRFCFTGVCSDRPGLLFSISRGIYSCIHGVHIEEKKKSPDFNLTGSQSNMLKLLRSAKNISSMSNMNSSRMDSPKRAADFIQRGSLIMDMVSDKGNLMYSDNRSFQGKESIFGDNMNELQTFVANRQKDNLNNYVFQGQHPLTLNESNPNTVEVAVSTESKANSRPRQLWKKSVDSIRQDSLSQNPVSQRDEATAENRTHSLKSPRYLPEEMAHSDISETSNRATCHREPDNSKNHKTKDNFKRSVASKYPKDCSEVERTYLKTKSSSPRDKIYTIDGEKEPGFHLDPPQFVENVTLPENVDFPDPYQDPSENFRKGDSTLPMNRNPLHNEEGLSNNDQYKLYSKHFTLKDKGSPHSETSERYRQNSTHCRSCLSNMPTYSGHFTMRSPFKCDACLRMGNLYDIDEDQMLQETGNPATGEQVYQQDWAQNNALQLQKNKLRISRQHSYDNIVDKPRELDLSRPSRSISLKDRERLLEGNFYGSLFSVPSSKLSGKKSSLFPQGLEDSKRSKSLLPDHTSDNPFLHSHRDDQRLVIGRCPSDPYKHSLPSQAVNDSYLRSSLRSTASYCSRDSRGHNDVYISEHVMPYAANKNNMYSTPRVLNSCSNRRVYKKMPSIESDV
# Method Summary: Positive allosteric modulation of recombinant human GluN1/GluN2A receptor stably expressed in HEK293 cells assessed as increase in glycine/L-glutamate-induced channel current at -70 mV holding potential by IonWork […] method
# Format: cell-based
Assay Metric: log10 EC50 (log10 of the value in µM)

Smiles Text: CC(C)(O)CCC[C@H]1CC[C@H]2[C@@H]3CC=C4C[C@@](C)(O)CC[C@]4(C)[C@H]3CC[C@]12C
log10 EC50: -0.26
--
Smiles Text: CC[C@@H](O)CC[C@@H](C)[C@H]1CC[C@H]2[C@@H]3CC=C4C[C@@](C)(O)CC[C@]4(C)[C@H]3CC[C@]12C
log10 EC50: -0.38
--
Smiles Text: C[C@H](CC[C@H](O)C1CCC1)[C@H]1CC[C@H]2[C@@H]3CC=C4C[C@@](C)(O)CC[C@]4(C)[C@H]3CC[C@]12C
log10 EC50: -0.92
--
Smiles Text: C[C@H](CCC1(O)CC1)[C@H]1CC[C@H]2[C@@H]3CC=C4C[C@@H](O)CC[C@]4(C)[C@H]3CC[C@]12C
log10 EC50: -0.05
--
Smiles Text: CC(C)[C@H](O)CC[C@@H](C)[C@H]1CC[C@H]2[C@@H]3CC=C4C[C@@](C)(O)CC[C@]4(C)[C@H]3CC[C@]12C
log10 EC50: -0.92
--
Smiles Text: C[C@H](CCCO)[C@H]1CC[C@H]2[C@@H]3CC=C4C[C@@H](O)CC[C@]4(C)[C@H]3CC[C@]12C
log10 EC50: 0.48
--
Smiles Text: C[C@H](CCC(C)(C)O)[C@H]1CC[C@H]2[C@@H]3CC=C4C[C@@H](O)CC[C@]4(C)[C@H]3CC[C@]12C
log10 EC50: -0.74
--
Smiles Text: C[C@H](CCC1(O)CC1)[C@H]1CC[C@H]2[C@@H]3CC=C4C[C@@](C)(O)CC[C@]4(C)[C@H]3CC[C@]12C
log10 EC50: -1.10
--
Smiles Text: C[C@H](CC[C@@H](O)C(F)(F)F)[C@H]1CC[C@H]2[C@@H]3CC=C4C[C@@](C)(O)CC[C@]4(C)[C@H]3CC[C@]12C
log10 EC50: -1.52
--
Smiles Text: C[C@H](CC[C@H](O)C1CC1)[C@H]1CC[C@H]2[C@@H]3CC=C4C[C@@](C)(O)CC[C@]4(C)[C@H]3CC[C@]12C
log10 EC50: -0.49

* * *

# Method Summary: Ratio of drug level in Sprague-Dawley rat brain to plasma at 10 mg/kg, ip measured after 1 hr
# Type: ADME, organism-based
# Test Conditions: brain and plasma, read-out: BPR

Smiles Text: CC(C)[C@@H](O)CC[C@@H](C)[C@H]1CC[C@H]2[C@@H]3CC=C4C[C@@](C)(O)CC[C@]4(C)[C@H]3CC[C@]12C
Kp at 1 h: 1.3
--
Smiles Text: C[C@H](CC[C@@H](O)C1CC1)[C@H]1CC[C@H]2[C@@H]3CC=C4C[C@@](C)(O)CC[C@]4(C)[C@H]3CC[C@]12C
Kp at 1 h: 3.2
--
Smiles Text: CC(C)[C@H](O)CC[C@@H](C)[C@H]1CC[C@H]2[C@@H]3CC=C4C[C@@](C)(O)CC[C@]4(C)[C@H]3CC[C@]12C
Kp at 1 h: 0.8
